molecular target: HIV-1LAI envelope gp120 (Human immunodeficiency virus type 1 group M subtype B, UniProt P03377); format: binding; conditions: CXCR4 (1-18) alanine variants; mean of two syntheses and binding experiments ± average deviation; wild-type = 100%
Relative % of Control values, listed per item

{"chain sequence": "MEGISIYTSANYTEEMGS", "Relative % of Control, %": 71}
{"chain sequence": "MEGISIYASDNYTEEDGS", "Relative % of Control, %": 97}
{"chain sequence": "MEGISIYTADNYTEEMGS", "Relative % of Control, %": 70}
{"chain sequence": "MEGISIYTSDNYTEEMGS", "Relative % of Control, %": 100}
{"chain sequence": "MEGISIYTSDNYTEAMGS", "Relative % of Control, %": 56}
{"chain sequence": "MEGISIYTSDNYTEEMAS", "Relative % of Control, %": 68}
{"chain sequence": "MEGISIYTSDNYTAEMGS", "Relative % of Control, %": 72}
